Entries and their IC50
Molecular target: Neuraminidase (Influenza A virus)
Sequence (B4URF0 whole entry): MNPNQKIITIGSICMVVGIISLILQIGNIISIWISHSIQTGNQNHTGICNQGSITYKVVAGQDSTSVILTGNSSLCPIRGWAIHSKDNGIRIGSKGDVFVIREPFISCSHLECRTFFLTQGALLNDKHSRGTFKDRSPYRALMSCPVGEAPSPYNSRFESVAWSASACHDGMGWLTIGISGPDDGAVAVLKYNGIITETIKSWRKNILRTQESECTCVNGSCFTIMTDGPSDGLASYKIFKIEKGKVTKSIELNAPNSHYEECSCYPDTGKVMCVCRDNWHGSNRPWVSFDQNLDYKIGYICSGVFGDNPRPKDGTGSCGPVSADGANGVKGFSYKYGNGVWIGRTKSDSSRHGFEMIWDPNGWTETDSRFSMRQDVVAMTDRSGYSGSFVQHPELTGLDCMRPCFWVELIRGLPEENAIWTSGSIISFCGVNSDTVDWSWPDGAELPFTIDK
Assay: Inhibition of Influenza A virus H1N1 A/duck/China/QJ/01 neuraminidase N1 using 4-MU-NANA as substrate after 5 mins by fluorescence assay
Give the number; µM is assumed, so skip it.

Consider the worked cases shown below.
[[record]]
smiles_string = "O=C(O)CCNC(=O)/C=C/c1ccc(O)c(O)c1"
result_type = "IC50"
assay_result = 27.3

[[record]]
smiles_string = "O=C(/C=C/c1ccc(O)c(O)c1)Nc1ccc(O)c(NC(=O)C2CC2)c1"
result_type = "IC50"
assay_result = 18.2

[[record]]
smiles_string = "O=C(/C=C/c1ccc(O)c(O)c1)N[C@@H](Cc1ccccc1)C(=O)O"
result_type = "IC50"
assay_result = 37.4

[[record]]
smiles_string = "O=C(/C=C/c1ccc(O)c(O)c1)N[C@@H](Cc1c[nH]c2ccccc12)C(=O)O"
result_type = "IC50"
assay_result = 30.1

[[record]]
smiles_string = "CC(=O)Nc1cc(NC(=O)/C=C/c2ccc(O)c(O)c2)ccc1O"
result_type = "IC50"
assay_result = 17.7

[[record]]
smiles_string = "CC(=O)Nc1cc(NC(=O)/C=C/c2ccc(O)c(O)c2)ccc1OCC(=O)O"
result_type = "IC50"
assay_result = 12.2

[[record]]
smiles_string = "CC(C)C(=O)N[C@@H](CCCNC(=O)/C=C/c1ccc(O)c(O)c1)C(=O)O"
result_type = "IC50"
assay_result = 31.9

[[record]]
smiles_string = "CCC(=O)Nc1cc(NC(=O)/C=C/c2ccc(O)c(O)c2)ccc1O"
result_type = "IC50"
assay_result = 17.6

[[record]]
smiles_string = "O=C(/C=C/c1ccc(O)c(O)c1)NCCC[C@H](NC(=O)c1ccccc1)C(=O)O"
result_type = "IC50"
assay_result = 34.3

[[record]]
smiles_string = "O=C(O)CNC(=O)/C=C/c1ccc(O)c(O)c1"
result_type = "IC50"
assay_result = 49.5


Query CC(C)[C@H](NC(=O)/C=C/c1ccc(O)c(O)c1)C(=O)O yields IC50 of 38.3

Entry O=C(O)CCCNC(=O)/C=C/c1ccc(O)c(O)c1 — recorded IC50 = 27.7

Recorded result, CCC(CC)C(=O)Nc1cc(NC(=O)/C=C/c2ccc(O)c(O)c2)ccc1O , IC50: 22.8

====

Target: Neuraminidase (Influenza A virus)
Assay: Inhibition of Influenza A virus H9N2 neuraminidase
Result Type: IC50 (µM)
Write it as a number; the unit µM goes unstated.

[[record]]
smiles_string = "O=C(/C=C/c1ccc(O)cc1)CC(=O)/C=C/c1ccc(O)c(O)c1"
result_type = "IC50"
assay_result = 64.1


# IC50 of O=C(/C=C/c1ccc(O)c(O)c1)CC(=O)/C=C/c1ccc(O)c(O)c1 = 63.8

====

Assay: Cytotoxicity against chicken embryo fibroblast after 2 days by MTS assay
Type: cell-based, Gallus gallus
Details: chicken embryo fibroblasts
The threshold is 80 µM. Values of CC50 at 48 h beneath it are tagged Met; values meeting or exceeding it are tagged Not met.

[[record]]
smiles_string = "O=C(O)CCNC(=O)/C=C/c1ccc(O)c(O)c1"
assigned_label = "Not met"

[[record]]
smiles_string = "CCC(CC)C(=O)Nc1cc(NC(=O)/C=C/c2ccc(O)c(O)c2)ccc1O"
assigned_label = "Not met"

[[record]]
smiles_string = "CC(C)C(=O)N[C@@H](CCCNC(=O)/C=C/c1ccc(O)c(O)c1)C(=O)O"
assigned_label = "Met"


Then there is this compound:
Take the compound CCC(=O)Nc1cc(NC(=O)/C=C/c2ccc(O)c(O)c2)ccc1O and say whether its CC50 at 48 h is less than 80 µM.
Not met
